This collection of values is drawn from ChEMBL document CHEMBL3804808.

target: Hexokinase-2 (Homo sapiens)
Sequence (P52789 whole entry): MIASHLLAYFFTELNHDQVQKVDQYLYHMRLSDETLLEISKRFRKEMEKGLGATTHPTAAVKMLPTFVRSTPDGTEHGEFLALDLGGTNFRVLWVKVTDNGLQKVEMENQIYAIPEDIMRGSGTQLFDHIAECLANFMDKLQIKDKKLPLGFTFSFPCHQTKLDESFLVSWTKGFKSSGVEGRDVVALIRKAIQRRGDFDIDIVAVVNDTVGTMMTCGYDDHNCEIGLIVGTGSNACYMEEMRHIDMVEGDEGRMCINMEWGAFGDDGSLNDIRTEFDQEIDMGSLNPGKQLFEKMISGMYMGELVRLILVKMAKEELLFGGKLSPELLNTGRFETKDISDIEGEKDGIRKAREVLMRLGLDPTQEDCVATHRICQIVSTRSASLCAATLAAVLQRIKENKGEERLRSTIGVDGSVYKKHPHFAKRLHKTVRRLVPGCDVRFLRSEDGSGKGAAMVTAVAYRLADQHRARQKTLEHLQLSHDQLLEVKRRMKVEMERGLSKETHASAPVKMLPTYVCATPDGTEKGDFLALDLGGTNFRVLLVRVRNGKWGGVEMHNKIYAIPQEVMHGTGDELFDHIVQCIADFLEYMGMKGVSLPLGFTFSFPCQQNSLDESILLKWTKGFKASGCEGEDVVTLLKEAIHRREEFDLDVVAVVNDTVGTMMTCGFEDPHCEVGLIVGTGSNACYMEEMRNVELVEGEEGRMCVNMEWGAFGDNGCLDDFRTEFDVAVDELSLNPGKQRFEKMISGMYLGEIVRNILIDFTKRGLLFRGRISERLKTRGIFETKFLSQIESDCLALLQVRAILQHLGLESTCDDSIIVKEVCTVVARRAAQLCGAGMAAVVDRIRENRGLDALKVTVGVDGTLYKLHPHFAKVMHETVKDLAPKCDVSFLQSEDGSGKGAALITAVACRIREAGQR
protocol-description: Inhibition of His-tagged human HK2 (17 to 916 residues) expressed in Escherichia coli BL21(DE3) using glucose as substrate after 45 mins by ADP-glo assay in presence of MgATP
pIC50: −log10 of the molar value.
Reported pIC50 values are given for each entry in this list.
endpoint-name: pIC50

[[record]]
compound = "O=C(N[C@H]1C(O)O[C@H](CNS(=O)(=O)c2cnccc2Cl)[C@@H](O)[C@@H]1O)c1cccc(-c2ccccc2)c1 (stereo partly drawn)"
target = "Hexokinase-2 (Homo sapiens)"
number = 7.00

[[record]]
compound = "O=[N+]([O-])c1cccc(S(=O)(=O)N[C@H]2C(O)O[C@H](CNS(=O)(=O)c3cccc(Cl)c3Cl)[C@@H](O)[C@@H]2O)c1 (stereo partly drawn)"
target = "Hexokinase-2 (Homo sapiens)"
number = 6.89

[[record]]
compound = "O=C(N[C@H]1C(O)O[C@H](CNS(=O)(=O)c2ccccc2Cl)[C@@H](O)[C@@H]1O)c1cccc(-c2ccccc2)c1 (stereo partly drawn)"
target = "Hexokinase-2 (Homo sapiens)"
number = 7.00

